// provenance: paper PMC3431135

# targetEntity: BChE from rabbit serum (rBChE) (Oryctolagus cuniculus, UniProt P21927)
# Construct: BChE was obtained from rabbit blood serum by applying the techniques of centrifugation; from tissue; host or cells: rabbit blood serum
# Sequence (P21927 9-581): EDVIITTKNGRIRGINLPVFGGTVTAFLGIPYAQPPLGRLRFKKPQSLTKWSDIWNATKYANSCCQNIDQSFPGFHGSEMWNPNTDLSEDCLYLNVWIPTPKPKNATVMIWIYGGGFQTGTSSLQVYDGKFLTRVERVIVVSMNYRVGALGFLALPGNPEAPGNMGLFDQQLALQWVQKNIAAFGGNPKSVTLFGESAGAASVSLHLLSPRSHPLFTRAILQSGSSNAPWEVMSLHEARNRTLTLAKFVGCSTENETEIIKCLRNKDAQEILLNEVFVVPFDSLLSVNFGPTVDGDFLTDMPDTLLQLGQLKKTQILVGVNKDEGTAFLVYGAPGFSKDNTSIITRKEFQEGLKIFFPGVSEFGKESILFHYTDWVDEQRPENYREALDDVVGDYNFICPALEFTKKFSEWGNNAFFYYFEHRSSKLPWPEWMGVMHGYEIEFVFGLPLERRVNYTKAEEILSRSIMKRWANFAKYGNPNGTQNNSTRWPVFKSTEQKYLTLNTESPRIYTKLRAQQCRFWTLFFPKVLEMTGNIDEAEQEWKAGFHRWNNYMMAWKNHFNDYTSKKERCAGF
# runDescription: biochemical
observedProperty: Ki (nM)

1. CN(C)C(=O)Oc1cccc([N+](C)(C)C)c1 [Neostigmine, neostigmine methylsulfate, reference compound] ... 47

###

// reported pKi per item
# targetEntity: AChE from electrophorus electricus (EeAChE) (Electrophorus electricus)
# Construct: Acetylcholinesterase (AChE) (EC 3.1.1.7, type VI-S from Electric Eel); purchased Sigma-Aldrich (Steinheim, Germany) type VI-S; host or cells: electric eel (natural source)
# Sequence (O42275 24-633): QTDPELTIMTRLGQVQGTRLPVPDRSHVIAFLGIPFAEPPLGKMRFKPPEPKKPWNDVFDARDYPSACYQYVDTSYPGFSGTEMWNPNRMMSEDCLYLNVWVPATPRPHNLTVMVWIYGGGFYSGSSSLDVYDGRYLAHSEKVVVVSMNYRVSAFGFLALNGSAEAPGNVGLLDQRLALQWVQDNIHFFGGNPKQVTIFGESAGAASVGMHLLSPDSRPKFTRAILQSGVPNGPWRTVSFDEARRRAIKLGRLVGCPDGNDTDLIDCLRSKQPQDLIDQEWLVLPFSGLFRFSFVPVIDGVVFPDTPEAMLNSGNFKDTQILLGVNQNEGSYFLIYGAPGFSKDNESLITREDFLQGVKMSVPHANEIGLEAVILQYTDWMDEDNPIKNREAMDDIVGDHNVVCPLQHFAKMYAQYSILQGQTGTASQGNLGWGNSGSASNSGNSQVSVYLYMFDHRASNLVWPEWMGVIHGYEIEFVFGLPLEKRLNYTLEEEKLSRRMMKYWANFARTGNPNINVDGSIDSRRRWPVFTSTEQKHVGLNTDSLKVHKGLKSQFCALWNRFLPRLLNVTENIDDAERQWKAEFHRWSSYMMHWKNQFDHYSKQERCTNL
# runDescription: biochemical
# conditionLabel: mean ± SEM of three experiments; Ki calculated from IC50; substrate ATCI; read-out: EeAChE Ki ± SEM
pKi: −log10 of the molar value.
observedProperty: pKi

1) COc1ccccc1-n1c(-c2cc3ccccc3oc2=O)n[nH]c1=S [Compound 3f] ... 5.39
2) Cc1ccc(Nc2nnc(-c3cc4ccccc4oc3=O)s2)cc1 [Compound 4e] ... 5.21
3) Cc1ccc(-n2c(-c3cc4ccccc4oc3=O)n[nH]c2=S)cc1 [Compound 3e] ... 4.74
4) O=c1oc2ccccc2cc1-c1nnc(Nc2ccc(Cl)cc2)s1 [Compound 4c] ... 4.31
5) O=c1oc2ccccc2cc1-c1nnc(Nc2ccccc2Cl)s1 [Compound 4a] ... 5.24
6) COc1ccccc1Nc1nnc(-c2cc3ccccc3oc2=O)s1 [Compound 4f] ... 5.15
7) O=c1oc2ccccc2cc1-c1n[nH]c(=S)n1-c1ccccc1Cl [Compound 3a] ... 5.62
8) Cc1cccc(-n2c(-c3cc4ccccc4oc3=O)n[nH]c2=S)c1 [Compound 3d] ... 5.24
9) COc1cccc(Nc2nnc(-c3cc4ccccc4oc3=O)s2)c1 [Compound 4g] ... 5.08
